Test system: MDCK-mdr1 cells
Assay: MDCK-mdr1 transport assay
Type: in vitro ADME, Canine
Conditions: 3.16 µM apical, 1 hr at 37°C
assayEndpoint: transport from apical to basal side of the membrane

{"compound": "CCNC1(C(N)=O)CCN(c2ncnc3c2nc(-c2ccccc2Cl)n3-c2ccc(Cl)cc2)CC1 [otenabant, reference compound]", "tgt": "MDCK-mdr1 cells", "readoutValue": "~ 90%"}
{"compound": "Cc1c(C(=O)NN2CCCCC2)nn(-c2ccc(Cl)cc2Cl)c1-c1ccc(Cl)cc1 [rimonabant, reference compound]", "tgt": "MDCK-mdr1 cells", "readoutValue": "~ 15%"}
{"compound": "Cc1c(C(=O)NC[C@H]2CC[C@@H](CNS(N)(=O)=O)CC2)nn(-c2ccc(Cl)cc2Cl)c1-c1ccc(Cl)cc1 [Compound 23]", "tgt": "MDCK-mdr1 cells", "readoutValue": "less than 1%"}
{"compound": "Cc1c(C(=O)NC[C@H]2CC[C@@H](CNS(C)(=O)=O)CC2)nn(-c2ccc(Cl)cc2Cl)c1-c1ccc(Cl)cc1 [Compound 22]", "tgt": "MDCK-mdr1 cells", "readoutValue": "less than 1%"}
